- TEST SUMMARY: Initial solubility screen with various excipients
- Type: physicochemical
- STUDY CONDITIONS: aqueous with cosolvent or surfactant or cyclodextrin, thermodynamic from solid; PEG 400 25% w/v; ibudilast conc. 25 mg/mL
PARAMETER: solubility (µg/mL)
A number alone suffices; assume µg/mL.

The measured solubility associated with CC(C)C(=O)c1c(C(C)C)nn2ccccc12 reads 1110

###

- TEST SUMMARY: Initial solubility screen with various excipients
- Format: physicochemical
- STUDY CONDITIONS: aqueous with cosolvent or surfactant or cyclodextrin, thermodynamic from solid; Kolliphor RH 40 5% w/v; ibudilast conc. 25 mg/mL
PARAMETER: solubility (µg/mL)
Write the answer as a number in µg/mL, unit excluded.

Field solubility (entry CC(C)C(=O)c1c(C(C)C)nn2ccccc12 ) reads 5580
